Source of measurements: patent US7855290B2

# experimental_target: HGFR (Homo sapiens, UniProt P08581)
# Construct: endogenous in cells
# Sequence (P08581 25-1390): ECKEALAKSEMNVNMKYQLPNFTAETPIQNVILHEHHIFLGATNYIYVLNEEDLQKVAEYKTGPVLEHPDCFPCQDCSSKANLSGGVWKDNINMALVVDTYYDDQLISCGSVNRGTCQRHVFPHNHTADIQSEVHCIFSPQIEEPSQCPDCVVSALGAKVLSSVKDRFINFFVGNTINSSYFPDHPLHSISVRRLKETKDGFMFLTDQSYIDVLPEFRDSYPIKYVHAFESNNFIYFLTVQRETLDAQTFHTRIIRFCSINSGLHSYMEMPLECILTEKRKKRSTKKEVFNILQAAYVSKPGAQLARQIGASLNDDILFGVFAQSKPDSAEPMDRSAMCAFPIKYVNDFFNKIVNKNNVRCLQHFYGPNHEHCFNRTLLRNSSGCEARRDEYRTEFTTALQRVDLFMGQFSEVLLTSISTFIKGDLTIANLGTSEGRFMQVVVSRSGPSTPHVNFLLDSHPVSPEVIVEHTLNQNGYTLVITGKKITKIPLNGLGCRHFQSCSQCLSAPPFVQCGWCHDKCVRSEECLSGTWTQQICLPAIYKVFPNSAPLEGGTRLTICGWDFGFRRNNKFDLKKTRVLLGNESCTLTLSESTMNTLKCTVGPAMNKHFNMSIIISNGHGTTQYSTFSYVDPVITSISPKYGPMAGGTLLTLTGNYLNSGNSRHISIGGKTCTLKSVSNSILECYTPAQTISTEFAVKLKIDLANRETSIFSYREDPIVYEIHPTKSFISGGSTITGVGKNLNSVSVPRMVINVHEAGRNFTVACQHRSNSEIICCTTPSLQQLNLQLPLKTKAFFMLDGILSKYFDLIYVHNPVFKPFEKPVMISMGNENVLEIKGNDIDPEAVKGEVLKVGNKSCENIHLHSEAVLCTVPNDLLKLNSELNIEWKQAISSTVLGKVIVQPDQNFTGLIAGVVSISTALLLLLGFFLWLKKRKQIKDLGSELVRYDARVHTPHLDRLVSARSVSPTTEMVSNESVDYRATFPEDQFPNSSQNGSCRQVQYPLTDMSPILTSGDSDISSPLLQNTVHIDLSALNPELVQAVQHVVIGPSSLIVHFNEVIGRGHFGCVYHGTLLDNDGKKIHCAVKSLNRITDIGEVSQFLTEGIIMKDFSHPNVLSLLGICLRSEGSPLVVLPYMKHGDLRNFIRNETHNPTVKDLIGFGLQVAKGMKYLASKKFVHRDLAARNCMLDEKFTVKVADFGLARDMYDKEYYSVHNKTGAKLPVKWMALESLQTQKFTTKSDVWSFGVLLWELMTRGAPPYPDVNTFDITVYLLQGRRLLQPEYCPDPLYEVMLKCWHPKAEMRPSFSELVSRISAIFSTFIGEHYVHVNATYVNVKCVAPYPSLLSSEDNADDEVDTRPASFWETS
# protocol_summary: Inhibitory activity against the HGFR autophosphorylation using ELISA (MKN-45 cells)
# conditions_used: 1 hr with test substance
Kindly supply the reported pIC50 values for the records listed here.
Answers are plain numbers, as −log10 of the molar value.

# annotated cases, reported pIC50 shown
# smiles, value_observed
rows = [
    ("O=C(Nc1cc(Oc2ccc(NC(=O)C3(C(=O)Nc4ccc(F)cc4)CC3)cc2F)ccn1)N1CCC(N2CCC2)CC1", 7.89),
    ("CN1CCC(N2CCN(C(=O)Nc3cc(Oc4ccc(NC(=O)C5(C(=O)Nc6ccc(F)cc6)CC5)cc4)ccn3)CC2)CC1", 7.52),
    ("CN1CCC(N(C)C(=O)Nc2cc(Oc3ccc(NC(=O)C4(C(=O)Nc5ccc(F)cc5)CC4)cc3F)ccn2)CC1", 7.74),
    ("CN(C)[C@H]1CCN(C(=O)Nc2cc(Oc3ccc(NC(=O)C4(C(=O)Nc5ccc(F)cc5)CC4)cc3F)ccn2)C1", 7.57),
    ("O=C(Nc1cc(Oc2ccc(NC(=O)C3(C(=O)Nc4ccc(F)cc4)CC3)c(F)c2)ccn1)N1CC[C@@H](O)C1", 7.92),
]

Would you mind listing pIC50 for each of the following compounds?
1. O=C(Nc1cc(Oc2cc(F)c(NC(=O)C3(C(=O)Nc4ccc(F)cc4)CC3)cc2F)ncn1)N1CC(CO)C1
2. CN(C)CCN1CCN(C(=O)Nc2cc(Oc3ccc(NC(=O)C4(C(=O)Nc5ccc(F)cc5)CC4)cc3F)ccn2)CC1
3. O=C(Nc1cc(Oc2ccc(NC(=O)C3(C(=O)Nc4ccc(F)cc4)CC3)c(F)c2)ccn1)N1CCC(N2CCC2)CC1

7.85
7.46
7.96

Would you mind listing pIC50 for each of the following compounds?
1. CN(C)[C@H]1CCN(C(=O)Nc2cc(Oc3ccc(NC(=O)C4(C(=O)Nc5ccc(F)cc5)CC4)cc3)ccn2)C1
2. CN(C)C1CN(C2CCN(C(=O)Nc3cc(Oc4ccc(NC(=O)C5(C(=O)Nc6ccc(F)cc6)CC5)cc4)ccn3)CC2)C1
3. CN(C)CCN1CCC(N(C)C(=O)Nc2cc(Oc3ccc(NC(=O)C4(C(=O)Nc5ccc(F)cc5)CC4)cc3)ccn2)CC1
4. O=C(Nc1cc(Oc2ccc(NC(=O)C3(C(=O)Nc4ccc(F)cc4)CC3)cc2F)ccn1)N1CCC(O)CC1
5. CN1CCC(N2CCN(C(=O)Nc3cc(Oc4ccc(NC(=O)C5(C(=O)Nc6ccc(F)cc6)CC5)c(F)c4)ccn3)CC2)CC1
6. CN(C)C1CN(C2CCN(C(=O)Nc3cc(Oc4ccc(NC(=O)C5(C(=O)Nc6ccccc6)CC5)c(F)c4)ccn3)CC2)C1

[7.80, 7.74, 7.80, 7.77, 7.74, 7.80]

Would you mind listing pIC50 for each of the following compounds?
1. CN1CCN(C(=O)Nc2cc(Oc3cc(F)c(NC(=O)C4(C(=O)Nc5ccc(F)cc5)CC4)cc3F)ccn2)CC1
2. CN(C)C1CCN(C(=O)Nc2cc(Oc3ccc(NC(=O)C4(C(=O)Nc5ccc(F)cc5)CC4)cc3F)ccn2)CC1
3. CN1CCC(N(C)C(=O)Nc2cc(Oc3ccc(NC(=O)C4(C(=O)NCC(C)(C)C)CC4)c(F)c3)ccn2)CC1

7.82
7.77
6.43

Would you mind listing pIC50 for each of the following compounds?
1. O=C(Nc1cc(Oc2ccc(NC(=O)C3(C(=O)Nc4ccc(F)cc4)CC3)c(F)c2)ccn1)N1CCC(N2CCNCC2)CC1
2. CN1CCC(N(C)C(=O)Nc2cc(Oc3ccc(NC(=O)C4(C(=O)NCc5ccccc5)CC4)c(F)c3)ccn2)CC1
3. O=C(Nc1cc(Oc2ccc(NC(=O)C3(C(=O)Nc4ccc(F)cc4)CC3)cc2F)ccn1)N1CC[C@H](O)C1

1. 7.96
2. 6.59
3. 7.70
